system under test: Histone deacetylase 11 (Homo sapiens, UniProt Q96DB2)
Sequence (Q96DB2 whole entry): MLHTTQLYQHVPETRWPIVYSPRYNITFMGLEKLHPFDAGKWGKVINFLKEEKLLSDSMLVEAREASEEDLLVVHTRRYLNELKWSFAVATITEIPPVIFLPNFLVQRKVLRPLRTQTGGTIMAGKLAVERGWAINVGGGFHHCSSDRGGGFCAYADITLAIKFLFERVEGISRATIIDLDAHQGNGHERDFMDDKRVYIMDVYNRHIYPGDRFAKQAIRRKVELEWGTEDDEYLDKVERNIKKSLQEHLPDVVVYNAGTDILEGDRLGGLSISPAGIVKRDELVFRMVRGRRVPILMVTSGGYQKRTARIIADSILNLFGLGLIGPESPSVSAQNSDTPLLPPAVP
Measured IC50 by item
property name: IC50 (µM)

[[record]]
line_notation = "O=C(/C=C/c1ccc(-c2ccc(O)cc2)cc1)NO"
unit_of_measurement = "µM"
numeric_readout = 5.01

[[record]]
line_notation = "O=C(/C=C/c1ccc(-c2ccc(O)c(C34CC5CC(CC(C5)C3)C4)c2)cc1)NO"
unit_of_measurement = "µM"
numeric_readout = 57.2

[[record]]
line_notation = "COc1ccc(-c2ccc(/C=C/C(=O)NO)cc2)cc1"
unit_of_measurement = "µM"
numeric_readout = 73


---

system under test: Histone deacetylase 3 (Homo sapiens)
Sequence (O15379 whole entry): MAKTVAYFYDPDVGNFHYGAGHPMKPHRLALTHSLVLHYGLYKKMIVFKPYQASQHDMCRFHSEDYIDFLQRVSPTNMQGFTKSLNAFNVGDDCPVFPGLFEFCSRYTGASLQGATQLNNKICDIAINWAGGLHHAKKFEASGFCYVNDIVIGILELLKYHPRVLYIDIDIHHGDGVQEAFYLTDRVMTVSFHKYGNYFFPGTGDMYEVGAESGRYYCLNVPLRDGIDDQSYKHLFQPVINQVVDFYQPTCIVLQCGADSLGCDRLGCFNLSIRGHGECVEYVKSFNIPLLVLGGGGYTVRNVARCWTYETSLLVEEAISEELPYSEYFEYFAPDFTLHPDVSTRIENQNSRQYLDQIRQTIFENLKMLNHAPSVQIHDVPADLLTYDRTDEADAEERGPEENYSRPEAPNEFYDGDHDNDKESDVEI
property name: IC50 (µM)

[[record]]
line_notation = "O=C(/C=C/c1ccc(-c2ccc(O)c(C34CC5CC(CC(C5)C3)C4)c2)cc1)NO"
property_name = "IC50"
unit_of_measurement = "µM"
numeric_readout = 55.6

[[record]]
line_notation = "O=C(/C=C/c1ccc(-c2ccc(O)cc2)cc1)NO"
property_name = "IC50"
unit_of_measurement = "µM"
numeric_readout = 4.57


---

system under test: Histone deacetylase 7 (Homo sapiens, UniProt Q8WUI4)
Sequence (Q8WUI4 whole entry): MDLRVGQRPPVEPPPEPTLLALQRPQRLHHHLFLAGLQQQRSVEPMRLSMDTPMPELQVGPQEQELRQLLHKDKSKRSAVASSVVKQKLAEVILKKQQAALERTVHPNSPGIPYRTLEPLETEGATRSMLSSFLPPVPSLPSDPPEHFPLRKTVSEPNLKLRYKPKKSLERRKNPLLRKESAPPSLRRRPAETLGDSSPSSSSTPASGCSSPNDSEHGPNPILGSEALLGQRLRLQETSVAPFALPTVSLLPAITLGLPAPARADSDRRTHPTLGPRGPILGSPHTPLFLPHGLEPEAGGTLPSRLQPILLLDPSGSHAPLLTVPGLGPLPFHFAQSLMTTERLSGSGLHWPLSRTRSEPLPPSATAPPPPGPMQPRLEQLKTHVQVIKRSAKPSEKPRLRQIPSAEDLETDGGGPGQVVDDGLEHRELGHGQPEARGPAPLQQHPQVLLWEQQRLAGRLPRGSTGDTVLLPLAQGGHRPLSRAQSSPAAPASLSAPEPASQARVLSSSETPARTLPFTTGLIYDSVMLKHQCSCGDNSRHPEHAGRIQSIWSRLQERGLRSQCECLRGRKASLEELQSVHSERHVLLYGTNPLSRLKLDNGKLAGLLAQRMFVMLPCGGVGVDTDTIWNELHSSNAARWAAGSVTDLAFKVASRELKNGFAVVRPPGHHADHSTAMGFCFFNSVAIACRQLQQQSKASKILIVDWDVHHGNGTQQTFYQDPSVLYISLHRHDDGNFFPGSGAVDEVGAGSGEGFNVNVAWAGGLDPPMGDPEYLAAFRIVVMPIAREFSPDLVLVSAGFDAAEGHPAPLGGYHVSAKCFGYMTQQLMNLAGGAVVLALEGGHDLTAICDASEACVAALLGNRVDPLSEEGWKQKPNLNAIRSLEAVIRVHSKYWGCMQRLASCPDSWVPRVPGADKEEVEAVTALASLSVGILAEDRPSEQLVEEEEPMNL
property name: IC50

[[record]]
line_notation = "COc1ccc(-c2ccc(/C=C/C=C/C(=O)NO)cc2)cc1"
property_name = "IC50"
result = "> 100 µM"


---

Measured Activity by item
Tested on: IGROV-1
assay notes: Induction of apoptosis in human IGROV1 cells at IC80 after 72 hrs by TUNEL and flow cytometry analysis (reference value: 4%)
Type: functional
property name: Activity

[[record]]
compound = "COc1ccc(-c2ccc(/C=C/C=C/C(=O)NO)cc2)cc1"
property_name = "Activity"
result = "91%"

[[record]]
compound = "COc1ccc(-c2ccc(/C=C/C(=O)NO)cc2)cc1"
property_name = "Activity"
result = "90%"

[[record]]
compound = "O=C(CCCCCCC(=O)Nc1ccccc1)NO [VORINOSTAT]"
property_name = "Activity"
result = "37%"

[[record]]
compound = "COc1ccc(-c2ccc(/C=C/C=C/C(=O)NO)cc2)cc1C12CC3CC(CC(C3)C1)C2"
property_name = "Activity"
result = "52%"

[[record]]
compound = "COc1ccc(-c2ccc(/C=C/C(=O)NO)cc2)cc1C12CC3CC(CC(C3)C1)C2"
property_name = "Activity"
result = "42%"


---

Target sequence: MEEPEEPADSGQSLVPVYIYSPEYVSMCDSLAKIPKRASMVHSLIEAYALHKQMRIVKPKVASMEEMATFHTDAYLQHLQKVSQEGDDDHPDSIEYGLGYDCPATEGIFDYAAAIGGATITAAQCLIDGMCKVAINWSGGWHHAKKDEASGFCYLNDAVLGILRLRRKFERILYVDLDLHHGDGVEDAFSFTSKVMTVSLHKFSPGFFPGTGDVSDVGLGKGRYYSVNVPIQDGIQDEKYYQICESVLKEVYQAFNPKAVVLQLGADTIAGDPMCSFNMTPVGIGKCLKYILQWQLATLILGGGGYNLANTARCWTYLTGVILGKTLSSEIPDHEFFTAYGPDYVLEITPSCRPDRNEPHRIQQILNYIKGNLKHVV
Measured IC50 by item
property name: IC50 (nM)

[[record]]
line_notation = "COc1ccc(-c2ccc(/C=C/C=C/C(=O)NO)cc2)cc1"
numeric_readout = 1560

[[record]]
line_notation = "COc1ccc(-c2ccc(/C=C/C(=O)NO)cc2)cc1"
numeric_readout = 69.8


All figures here come from ChEMBL document CHEMBL3232764.
